Values were extracted from ChEMBL document CHEMBL1201862.

System: A549
Test: NCI tumour cell line growth inhibition, 48 h
Calls of active or inactive are those of the source. Rule as the data show it: active = GI50 up to about 1.1 µM and inactive = higher.
Labels: 1 (active), -1 (inactive)

{"columns": ["COMPOUND", "TARGET ENTITY", "CLASSIFICATION"],
 "data": [
  ["CC[C@H]1CN(C)[C@H]2Cc3c([nH]c4ccccc34)C(=O)C[C@H]1C2C(=O)OC (stereo not given in full)", "A549", -1],
  ["CN(C)c1[se]nc2c1c(=O)n(C)c(=O)n2C", "A549", -1],
  ["CC(=O)NNc1nc(C)c(C(=O)/C=C/c2ccc(Cl)cc2)s1", "A549", -1],
  ["CC(NC(=O)C(Cc1ccc(OC(=O)c2ccccc2)cc1)NC(=O)OC(C)(C)C)C(=O)NCC(=O)NC(Cc1ccccc1)NC(=O)OCc1ccccc1 (stereo not given)", "A549", -1],
  ["NCc1ccc(O)c(O)c1O", "A549", -1],
  ["CCc1nc2cc(/N=N/c3c(O)ccc4ccccc34)ccc2[nH]1", "A549", -1],
  ["Cc1ccc(C(=O)N/N=C(\\N=N\\c2ccccc2C(=O)O)c2ccc(N(C)C)cc2)cc1", "A549", -1],
  ["C[C@@H](NC(=O)OC1C=CC2(CC1)C(=O)N(C)c1ccccc12)c1cccc2ccccc12 (stereo not given in full)", "A549", -1],
  ["Nc1c(C(=O)c2ccc(Cl)c(Cl)c2)[nH]c(NCc2ccccc2)c1C(=S)Nc1ccccc1", "A549", -1],
  ["CC(N/N=C(\\S)N1CCCC1)c1cccnn1 (stereo not given)", "A549", 1]
]}

---

Tested on: MCF7
Assay: NCI tumour cell line growth inhibition, 48 h
Active and inactive are the calls of the source. Cut-off read from the data, not from the text of the source: active = GI50 up to about 1.1 µM and inactive = higher.
OBSERVED PROPERTY: GI50

{"columns": ["COMPOUND", "TARGET ENTITY", "OBSERVED PROPERTY", "READING"],
 "data": [
  ["C=CCNC(=S)N/C=C(\\C#N)C(N)=O", "MCF7", "GI50", "> 100 µM (inactive)"],
  ["Cc1nc(-c2cc3ccccc3oc2=O)cs1", "MCF7", "GI50", "> 100 µM (inactive)"],
  ["Cc1ccc(/N=N\\c2c(O)c(S(=O)(=O)O)cc3cc(S(=O)(=O)O)ccc23)c(C)c1", "MCF7", "GI50", "> 100 µM (inactive)"],
  ["O=C1/C(=C/c2cccc(Br)c2)CCc2ccccc21", "MCF7", "GI50", "3.75 µM (inactive)"],
  ["CCC(=O)O[C@H]1CC[C@H]2[C@@H]3CCC4=C/C(=N/OC(=O)c5cccc6c(=O)c7ccccc7[nH]c56)CC[C@]4(C)[C@H]3CC[C@]12C", "MCF7", "GI50", "20.9 µM (inactive)"],
  ["Oc1c([Si](c2ccccc2)(c2ccccc2)c2ccccc2)cc2ccccc2c1-c1c(O)c([Si](c2ccccc2)(c2ccccc2)c2ccccc2)cc2ccccc12", "MCF7", "GI50", "> 100 µM (inactive)"],
  ["CC(=O)/C=C/C=C(\\C)CC/C=C(\\C)CC(C)C", "MCF7", "GI50", "22.8 µM (inactive)"],
  ["C=CCCCCCCCCC(=O)ON(Cc1ccc(O)c(OC)c1)C(=O)C(F)(F)F", "MCF7", "GI50", "> 100 µM (inactive)"],
  ["COc1ccc(C2Oc3ccc(Cl)cc3C=C2[N+](=O)[O-])cc1 (centres undefined)", "MCF7", "GI50", "> 100 µM (inactive)"]
]}
